# target.under.test: Calpain (Calpain-1) (Homo sapiens, UniProt P07384)
# assay.notes: in vitro fluorescence-based protease inhibition assay, calpain
# Type: biochemical
# conditions.used: Table 4, calpain inhibitors
Starred links: 1 amine or outer side, 2 acyl side, 3 side chain; linkers in the order of their positions; H or OH if unused. Positions of bridges follow the written chain, without caps; N, C: chain ends. Residues, ends and D or L forms follow the SMILES beside them. mXylylene = c1cc(C[*:1])cc(C[*:2])c1
attribute.measured: Ki (µM)
Give the quantity in µM, number only.

Record excerpt, results attached:
INSERT INTO results (molecule, attribute_measured, unit_info, value_measured) VALUES
  ('CC[C@H](C)[C@H](N)C(=O)N1CCC[C@H]1C(=O)N1CCC[C@H]1C(=O)N[C@@H](CCCCN)C(=O)N[C@@H](Cc1ccc(O)cc1)C(=O)N[C@H]1CSCc2cccc(c2)CSC[C@@H](C(=O)O)NC(=O)[C@H](CC(C)C)NC(=O)[C@H](C)NC(=O)[C@H](CCC(=O)O)NC1=O [compound 86] (H-IPPKYCEALC-OH; linker 6-10 via mXylylene; N-terminus and C-terminus assumed)', 'Ki', 'µM', 30.9),
  ('CC[C@H](C)[C@H](N)C(=O)N1CCC[C@H]1C(=O)N1CCC[C@H]1C(=O)N[C@@H](CCCCN)C(=O)N[C@@H](Cc1ccc(O)cc1)C(=O)N[C@H]1CSCc2cccc(c2)CSC[C@@H](C(=O)O)NC(=O)[C@H](CC(C)C)NC(=O)[C@H](CC(C)C)NC(=O)[C@H](CCC(=O)O)NC1=O', 'Ki', 'µM', 10.2);

// moving on: another record for Ki
Query: May I ask what Ki has been recorded for CC(C)C[C@@H]1NC(=O)[C@H](CC(C)C)NC(=O)[C@H](CCC(=O)O)NC(=O)[C@@H](NC(=O)[C@H](Cc2ccc(O)cc2)NC(=O)[C@H](CCCCN)NC(=O)[C@@H]2CCCN2C(=O)[C@@H]2CCCN2C(=O)[C@H](C)N)CSCc2cccc(c2)CSC[C@@H](C(=O)O)NC1=O [compound 72] (H-APPKYCELLC-OH; linker 6-10 via mXylylene; N-terminus and C-terminus assumed) ?
Reply: 65.6

====

# target.under.test: Calpain (Calpain-1) (Homo sapiens, UniProt P07384)
# Sequence (P07384 1-714): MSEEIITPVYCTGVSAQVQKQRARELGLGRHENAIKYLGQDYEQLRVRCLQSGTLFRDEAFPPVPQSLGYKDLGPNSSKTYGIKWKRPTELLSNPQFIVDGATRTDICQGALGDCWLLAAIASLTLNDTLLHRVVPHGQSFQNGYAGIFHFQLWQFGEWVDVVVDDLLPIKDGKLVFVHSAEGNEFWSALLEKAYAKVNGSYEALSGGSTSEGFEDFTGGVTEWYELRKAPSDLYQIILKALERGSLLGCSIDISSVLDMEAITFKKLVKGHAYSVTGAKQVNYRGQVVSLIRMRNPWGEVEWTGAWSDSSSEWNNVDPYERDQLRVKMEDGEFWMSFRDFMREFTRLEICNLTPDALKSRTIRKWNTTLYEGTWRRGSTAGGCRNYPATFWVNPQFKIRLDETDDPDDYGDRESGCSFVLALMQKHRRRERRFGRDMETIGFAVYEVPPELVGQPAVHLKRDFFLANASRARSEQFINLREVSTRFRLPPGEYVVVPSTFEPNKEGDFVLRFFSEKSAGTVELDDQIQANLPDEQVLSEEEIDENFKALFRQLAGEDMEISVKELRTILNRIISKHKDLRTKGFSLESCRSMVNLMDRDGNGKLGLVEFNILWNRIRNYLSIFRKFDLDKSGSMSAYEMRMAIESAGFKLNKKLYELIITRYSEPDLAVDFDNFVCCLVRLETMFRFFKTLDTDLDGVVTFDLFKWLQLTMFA
# Sequence (P04632 1-268 partner): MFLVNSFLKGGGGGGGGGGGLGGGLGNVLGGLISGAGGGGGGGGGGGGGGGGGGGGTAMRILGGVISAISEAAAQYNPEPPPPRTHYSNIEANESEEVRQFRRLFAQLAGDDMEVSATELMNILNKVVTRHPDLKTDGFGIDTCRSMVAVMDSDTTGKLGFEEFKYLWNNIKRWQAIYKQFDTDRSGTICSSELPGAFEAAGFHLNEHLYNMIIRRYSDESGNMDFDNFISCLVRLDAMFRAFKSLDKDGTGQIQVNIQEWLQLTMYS
# assay.notes: in vitro fluorescence-based protease inhibition assay, calpain
# Type: biochemical
# conditions.used: Table 4, calpain inhibitors
Starred links: 1 amine or outer side, 2 acyl side, 3 side chain; linkers in the order of their positions; H or OH if unused. Positions of bridges follow the written chain, without caps; N, C: chain ends. Residues, ends and D or L forms follow the SMILES beside them. mXylylene = c1cc(C[*:1])cc(C[*:2])c1
Listed next: entries and their corresponding pKi.
pKi is defined as minus the log10 of a concentration measured in mol/L.

INSERT INTO assay_data (compound, value_measured) VALUES
  ('CC[C@H](C)[C@H](NC(=O)[C@@H](NC(=O)[C@@H](NC(=O)[C@@H](N)CCC(=O)O)C(C)C)[C@@H](C)O)C(=O)N1CCC[C@H]1C(=O)N1CCC[C@H]1C(=O)N[C@@H](CCCCN)C(=O)N[C@@H](Cc1ccc(O)cc1)C(=O)N[C@H]1CSCc2cccc(c2)CSC[C@@H](C(=O)O)NC(=O)[C@H](CC(C)C)NC(=O)[C@H](CC(C)C)NC(=O)[C@H](CCC(=O)O)NC1=O [compound 69] (H-EVTIPPKYCELLC-OH; linker 9-13 via mXylylene; N-terminus and C-terminus assumed)', 5.28);

// moving on: another record for pKi
Query: May I ask what pKi has been recorded for CC(C)C[C@@H]1NC(=O)[C@H](CC(C)C)NC(=O)[C@H](CCC(=O)O)NC(=O)[C@@H](NC(=O)[C@H](Cc2ccc(O)cc2)NC(=O)[C@H](CCCCN)NC(=O)[C@@H]2CCCN2C(=O)[C@@H]2CCCN2C(=O)[C@@H](N)CCC(N)=O)CSCc2cccc(c2)CSC[C@@H](C(=O)O)NC1=O [compound 76] (H-QPPKYCELLC-OH; linker 6-10 via mXylylene; N-terminus and C-terminus assumed) ?
Reply: 4.46

====

# target.under.test: Calpain (Calpain-1) (Homo sapiens, UniProt P07384)
# assay.notes: in vitro fluorescence-based protease inhibition assay, calpain
# Format: biochemical
# conditions.used: Table 4, calpain inhibitors
# Protocol: Thus, the present invention includes a series of potent and highly specific α-helical inhibitors for papain family cysteine proteases. […] These short α-helical peptidomimetic inhibitors are modeled after the natural pro-domain sequence but contain a cysteine substitution at specific residues in i,i+4 positions, as shown in FIG. 2B. […] After synthesis, each inhibitor was tested against its respective protease using an in vitro fluorescence-based assay. […]
Starred links: 1 amine or outer side, 2 acyl side, 3 side chain; linkers in the order of their positions; H or OH if unused. Positions of bridges follow the written chain, without caps; N, C: chain ends. Residues, ends and D or L forms follow the SMILES beside them. mXylylene = c1cc(C[*:1])cc(C[*:2])c1
attribute.measured: Ki (µM)
Give the quantity in µM, number only.

Record excerpt, results attached:
INSERT INTO results (compound, unit_info, value_measured) VALUES
  ('CC[C@H](C)[C@H](N)C(=O)N1CCC[C@H]1C(=O)N1CCC[C@H]1C(=O)N[C@@H](CCCCN)C(=O)N[C@@H](Cc1ccc(O)cc1)C(=O)N[C@H]1CSCc2cccc(c2)CSC[C@@H](C(=O)O)NC(=O)[C@H](CC(C)C)NC(=O)[C@H](CCC(N)=O)NC(=O)[C@H](CCC(=O)O)NC1=O [compound 85] (H-IPPKYCEQLC-OH; linker 6-10 via mXylylene; N-terminus and C-terminus assumed)', 'µM', 11),
  ('CC[C@H](C)[C@H](N)C(=O)N1CCC[C@H]1C(=O)N1CCC[C@H]1C(=O)N[C@@H](CCCNC(=N)N)C(=O)N[C@@H](Cc1ccc(O)cc1)C(=O)N[C@H]1CSCc2cccc(c2)CSC[C@@H](C(=O)O)NC(=O)[C@H](CC(C)C)NC(=O)[C@H](CC(C)C)NC(=O)[C@H](CCC(=O)O)NC1=O [compound 80] (H-IPPRYCELLC-OH; linker 6-10 via mXylylene; N-terminus and C-terminus assumed)', 'µM', 5.3);

Query: May I ask what Ki has been recorded for CC(C)C[C@@H]1NC(=O)[C@H](CC(C)C)NC(=O)[C@H](CCC(=O)O)NC(=O)[C@@H](NC(=O)[C@H](Cc2ccc(O)cc2)NC(=O)[C@H](CCCCN)NC(=O)[C@@H]2CCCN2C(=O)[C@@H]2CCCN2C(=O)[C@@H](N)CC(C)C)CSCc2cccc(c2)CSC[C@@H](C(=O)O)NC1=O [compound 74] (H-LPPKYCELLC-OH; linker 6-10 via mXylylene; N-terminus and C-terminus assumed) ?
Reply: 11
